# test details: Oral bioavailability in beagle dog at 2 mg/kg
# Assay type: ADME, organism-based, Canis lupus familiaris
# conditions used: in vivo
measure: bioavailability (%)

1) N[C@H]1C[C@@H](N2Cc3cn[nH]c3C2)CO[C@@H]1c1cc(F)ccc1F | 83

----------
# test details: Plasma concentration in lean mouse at 0.3 mg/kg administered 10 mins prior to dextrose challenge
# Assay type: ADME, organism-based
# Design: dose 0.3 mg/kg
measure: concentration at 10 min (nM)

1. N[C@H]1C[C@@H](N2Cc3cn[nH]c3C2)CO[C@@H]1c1cc(F)ccc1F | 260

----------
# test details: Tmax in rhesus monkey at 1 mg/kg, iv and 2 mg/kg, po
# Assay type: ADME, organism-based, Macaca mulatta
# conditions used: in vivo
measure: Tmax

1) N[C@H]1C[C@@H](N2Cc3cn[nH]c3C2)CO[C@@H]1c1cc(F)ccc1F | 1.1 h
